src = ChEMBL document CHEMBL1135530

- tested_system: Integrin alpha-4/beta-7 (Homo sapiens, UniProt P13612+P26010)
- Sequence (P13612 whole entry): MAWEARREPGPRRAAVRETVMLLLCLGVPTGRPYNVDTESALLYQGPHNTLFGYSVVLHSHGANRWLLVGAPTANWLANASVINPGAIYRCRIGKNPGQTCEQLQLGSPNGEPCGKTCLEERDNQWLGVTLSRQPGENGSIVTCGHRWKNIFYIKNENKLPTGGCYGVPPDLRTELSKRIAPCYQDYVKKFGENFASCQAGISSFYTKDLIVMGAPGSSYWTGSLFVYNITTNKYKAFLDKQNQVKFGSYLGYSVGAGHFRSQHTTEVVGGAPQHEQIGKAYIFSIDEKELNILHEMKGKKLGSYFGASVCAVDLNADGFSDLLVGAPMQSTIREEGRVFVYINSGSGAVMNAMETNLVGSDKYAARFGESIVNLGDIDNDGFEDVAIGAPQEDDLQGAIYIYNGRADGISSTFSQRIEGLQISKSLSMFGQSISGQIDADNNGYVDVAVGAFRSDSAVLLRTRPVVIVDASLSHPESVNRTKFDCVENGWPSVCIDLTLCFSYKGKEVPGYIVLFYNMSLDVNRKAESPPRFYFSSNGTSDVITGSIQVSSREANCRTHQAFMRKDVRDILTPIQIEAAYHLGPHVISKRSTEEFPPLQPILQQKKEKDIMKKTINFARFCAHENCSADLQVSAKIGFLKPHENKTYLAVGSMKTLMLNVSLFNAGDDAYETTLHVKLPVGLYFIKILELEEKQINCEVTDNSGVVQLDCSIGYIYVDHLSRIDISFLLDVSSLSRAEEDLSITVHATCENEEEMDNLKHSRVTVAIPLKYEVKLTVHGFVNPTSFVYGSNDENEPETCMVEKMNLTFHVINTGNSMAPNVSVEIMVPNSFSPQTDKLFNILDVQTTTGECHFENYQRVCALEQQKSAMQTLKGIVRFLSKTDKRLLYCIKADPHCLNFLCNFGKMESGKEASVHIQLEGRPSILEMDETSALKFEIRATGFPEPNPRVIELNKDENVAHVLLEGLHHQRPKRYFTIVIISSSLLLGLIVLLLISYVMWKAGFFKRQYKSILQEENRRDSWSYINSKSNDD
- Sequence (P26010 whole entry): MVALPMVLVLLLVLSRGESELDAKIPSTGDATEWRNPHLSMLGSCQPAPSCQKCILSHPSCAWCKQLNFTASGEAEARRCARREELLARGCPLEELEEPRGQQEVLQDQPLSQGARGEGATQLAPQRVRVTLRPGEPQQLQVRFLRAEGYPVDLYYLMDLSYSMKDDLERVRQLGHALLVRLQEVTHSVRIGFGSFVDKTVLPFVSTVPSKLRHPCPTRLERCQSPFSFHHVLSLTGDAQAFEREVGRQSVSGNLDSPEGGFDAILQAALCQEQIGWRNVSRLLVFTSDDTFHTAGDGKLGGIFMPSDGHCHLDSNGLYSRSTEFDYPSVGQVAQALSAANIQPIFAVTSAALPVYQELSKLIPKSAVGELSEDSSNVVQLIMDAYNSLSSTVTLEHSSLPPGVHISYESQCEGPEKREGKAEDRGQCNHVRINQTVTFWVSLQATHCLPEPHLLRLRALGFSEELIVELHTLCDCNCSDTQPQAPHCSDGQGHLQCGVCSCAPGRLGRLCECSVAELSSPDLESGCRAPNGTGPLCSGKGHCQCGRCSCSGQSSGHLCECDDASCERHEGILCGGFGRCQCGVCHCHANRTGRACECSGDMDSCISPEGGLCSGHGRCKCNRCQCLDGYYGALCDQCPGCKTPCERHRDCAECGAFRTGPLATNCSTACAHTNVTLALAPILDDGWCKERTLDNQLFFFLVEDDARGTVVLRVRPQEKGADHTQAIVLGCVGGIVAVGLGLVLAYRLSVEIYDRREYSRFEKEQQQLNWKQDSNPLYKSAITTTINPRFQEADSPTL
- run_description: Ability to block the alpha4-beta7 integrin-MAdCAM-1 binding interaction using a protein ELISA format
Peptide text beside a SMILES is read from it.
Listed below: IC50 values for each entry.

compound	tested_system	u	IC50
C[C@@H](O)[C@@H]1NC(=O)[C@H](CC(=O)O)NC(=O)[C@H](CO)NC(=O)[C@H](CCCN=C(N)N)NC(=O)[C@@H](N)CSSC[C@@H](C(N)=O)NC(=O)CNC1=O	Integrin alpha-4/beta-7 (Homo sapiens, UniProt P13612+P26010)	µM	11
CC(C)C[C@@H]1NC(=O)[C@H]([C@@H](C)O)NC(=O)[C@H](CC(=O)O)NC(=O)[C@H](CO)NC(=O)[C@H](CCCN=C(N)N)NC(=O)[C@@H](NC(=O)[C@@H](N)CC(=O)O)CSSC[C@@H](C(=O)NCC(=O)N[C@@H](CCC(=O)O)C(N)=O)NC1=O (HELM PEPTIDE1{D.C.R.S.D.T.L.C.G.E.[am]}$PEPTIDE1,PEPTIDE1,2:R3-8:R3$$$V2.0)	Integrin alpha-4/beta-7 (Homo sapiens, UniProt P13612+P26010)	µM	0.26

====

- tested_system: Integrin alpha-4/beta-1 (Homo sapiens, UniProt P05556+P13612)
- Sequence (P05556 whole entry): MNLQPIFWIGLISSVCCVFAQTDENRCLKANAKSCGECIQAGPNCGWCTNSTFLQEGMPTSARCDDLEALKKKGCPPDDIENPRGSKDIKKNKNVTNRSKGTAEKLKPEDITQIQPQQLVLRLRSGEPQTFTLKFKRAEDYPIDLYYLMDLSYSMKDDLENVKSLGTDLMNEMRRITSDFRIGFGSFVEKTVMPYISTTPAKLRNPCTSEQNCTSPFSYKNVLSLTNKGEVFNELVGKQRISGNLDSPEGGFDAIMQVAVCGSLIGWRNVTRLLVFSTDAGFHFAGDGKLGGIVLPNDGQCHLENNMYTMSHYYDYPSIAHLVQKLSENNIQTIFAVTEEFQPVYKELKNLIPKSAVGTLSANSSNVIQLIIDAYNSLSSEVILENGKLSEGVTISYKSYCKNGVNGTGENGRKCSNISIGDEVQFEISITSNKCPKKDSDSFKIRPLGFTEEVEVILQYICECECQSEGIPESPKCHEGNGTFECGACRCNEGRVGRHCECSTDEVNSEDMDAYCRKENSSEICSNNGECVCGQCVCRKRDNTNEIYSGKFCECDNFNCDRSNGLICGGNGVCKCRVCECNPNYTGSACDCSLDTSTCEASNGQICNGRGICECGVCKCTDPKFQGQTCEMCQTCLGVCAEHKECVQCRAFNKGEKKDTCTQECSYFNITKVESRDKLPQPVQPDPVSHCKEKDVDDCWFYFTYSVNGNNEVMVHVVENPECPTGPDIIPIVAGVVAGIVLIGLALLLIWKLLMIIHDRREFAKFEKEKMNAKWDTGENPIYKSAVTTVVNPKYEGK
- Sequence (P13612 whole entry): as the sequence (P13612 whole entry) above
- run_description: Inhibitory concentration affording 50% inhibition of alpha4-beta1 integrin binding to VCAM-1, using ELISA assay.
Peptide text beside a SMILES is read from it.
measured_attribute: IC50

molecule	tested_system	measured_attribute	measured_result
CC(C)C[C@@H]1NC(=O)[C@H](C)NC(=O)[C@H](CC(=O)O)NC(=O)[C@H](CO)NC(=O)[C@H](CCCN=C(N)N)NC(=O)[C@@H](N)CSSC[C@@H](C(N)=O)NC1=O (HELM PEPTIDE1{C.R.S.D.A.L.C.[am]}$PEPTIDE1,PEPTIDE1,1:R3-7:R3$$$V2.0)	Integrin alpha-4/beta-1 (Homo sapiens, UniProt P05556+P13612)	IC50	60 µM
CC(C)[C@@H]1NC(=O)[C@H]([C@@H](C)O)NC(=O)[C@H](CC(=O)O)NC(=O)[C@H](CO)NC(=O)[C@H](CCCNC(=N)N)NC(=O)[C@@H](N)CSSC[C@@H](C(N)=O)NC1=O	Integrin alpha-4/beta-1 (Homo sapiens, UniProt P05556+P13612)	IC50	59 µM
CC(C)C[C@@H]1NC(=O)[C@H]([C@@H](C)O)NC(=O)[C@H](CC(=O)O)NC(=O)[C@H](CO)NC(=O)[C@H](Cc2c[nH]c3ccccc23)NC(=O)[C@@H](N)CSSC[C@@H](C(N)=O)NC1=O	Integrin alpha-4/beta-1 (Homo sapiens, UniProt P05556+P13612)	IC50	0.16 µM
CC(C)C[C@@H]1NC(=O)[C@H]([C@@H](C)O)NC(=O)[C@H](CC(=O)O)NC(=O)[C@H](C)NC(=O)[C@H](CCCNC(=N)N)NC(=O)[C@@H](N)CSSC[C@@H](C(N)=O)NC1=O (HELM PEPTIDE1{C.R.A.D.T.L.C.[am]}$PEPTIDE1,PEPTIDE1,1:R3-7:R3$$$V2.0)	Integrin alpha-4/beta-1 (Homo sapiens, UniProt P05556+P13612)	IC50	3.6 µM
CSCC[C@H](N)C(=O)N[C@@H](CC(=O)O)C(=O)N[C@H]1CSSC[C@@H](C(=O)NCC(N)=O)NC(=O)[C@H](CC(C)C)NC(=O)[C@H]([C@@H](C)O)NC(=O)[C@H](CC(=O)O)NC(=O)[C@H](CO)NC(=O)[C@H](CCCN=C(N)N)NC1=O (HELM PEPTIDE1{M.D.C.R.S.D.T.L.C.G.[am]}$PEPTIDE1,PEPTIDE1,3:R3-9:R3$$$V2.0)	Integrin alpha-4/beta-1 (Homo sapiens, UniProt P05556+P13612)	IC50	8.8 µM
C[C@@H]1NC(=O)[C@H]([C@@H](C)O)NC(=O)[C@H](CC(=O)O)NC(=O)[C@H](CO)NC(=O)[C@H](CCCN=C(N)N)NC(=O)[C@@H](N)CSSC[C@@H](C(N)=O)NC1=O (HELM PEPTIDE1{C.R.S.D.T.A.C.[am]}$PEPTIDE1,PEPTIDE1,1:R3-7:R3$$$V2.0)	Integrin alpha-4/beta-1 (Homo sapiens, UniProt P05556+P13612)	IC50	40 µM
CC(C)C[C@H]1NC(=O)[C@H]([C@H](C)O)NC(=O)[C@H](CC(=O)O)NC(=O)[C@H](CO)NC(=O)[C@@H](CCCN=C(N)N)NC(=O)[C@H](N)CSSC[C@H](C(N)=O)NC1=O	Integrin alpha-4/beta-1 (Homo sapiens, UniProt P05556+P13612)	IC50	> 100 µM
CC(C)C[C@@H]1NC(=O)[C@H]([C@@H](C)O)NC(=O)[C@H](CC(=O)O)NC(=O)[C@H](CO)NC(=O)[C@H](CCCN=C(N)N)NC(=O)[C@@H](NC(=O)[C@@H](N)CC(=O)O)CSSC[C@@H](C(=O)NCC(=O)N[C@@H](CCC(=O)O)C(N)=O)NC1=O (HELM PEPTIDE1{D.C.R.S.D.T.L.C.G.E.[am]}$PEPTIDE1,PEPTIDE1,2:R3-8:R3$$$V2.0)	Integrin alpha-4/beta-1 (Homo sapiens, UniProt P05556+P13612)	IC50	8.3 µM

====

- tested_system: Integrin alpha-4/beta-7 (Homo sapiens, UniProt P13612+P26010)
- run_description: Ability to block the alpha4-beta7 integrin-MAdCAM-1 binding interaction using a protein ELISA format
pIC50: −log10 of the molar value. Peptide text beside a SMILES is read from it.
Everything with pIC50 lower than 5 is Not fulfilled; everything else, including exactly 5, is Fulfilled.

compound	assigned_label
C[C@@H](O)[C@@H]1NC(=O)[C@H](CC(=O)O)NC(=O)[C@H](CO)NC(=O)[C@H](CCCNC(=N)N)NC(=O)[C@@H](N)CSSC[C@@H](C(N)=O)NC(=O)[C@@H]2CCCN2C1=O	Not fulfilled
CSCC[C@H](N)C(=O)N[C@@H](CC(=O)O)C(=O)N[C@H]1CSSC[C@@H](C(=O)NCC(N)=O)NC(=O)[C@H](CC(C)C)NC(=O)[C@H]([C@@H](C)O)NC(=O)[C@H](CC(=O)O)NC(=O)[C@H](CO)NC(=O)[C@H](CCCN=C(N)N)NC1=O (HELM PEPTIDE1{M.D.C.R.S.D.T.L.C.G.[am]}$PEPTIDE1,PEPTIDE1,3:R3-9:R3$$$V2.0)	Fulfilled
CC[C@H](C)[C@@H]1NC(=O)[C@H]([C@@H](C)O)NC(=O)[C@H](CC(=O)O)NC(=O)[C@H](CO)NC(=O)[C@H](CCCNC(=N)N)NC(=O)[C@@H](N)CSSC[C@@H](C(N)=O)NC1=O	Fulfilled
CC(C)C[C@@H]1NC(=O)[C@H](C(C)C)NC(=O)[C@H](CC(=O)O)NC(=O)[C@H](CO)NC(=O)[C@H](CCCN=C(N)N)NC(=O)[C@@H](N)CSSC[C@@H](C(N)=O)NC1=O	Fulfilled
CC(C)C[C@@H]1NC(=O)[C@H](CO)NC(=O)[C@H](CC(=O)O)NC(=O)[C@H](CO)NC(=O)[C@H](CCCNC(=N)N)NC(=O)[C@@H](N)CSSC[C@@H](C(N)=O)NC1=O	Fulfilled
CC(C)[C@@H]1NC(=O)[C@H]([C@@H](C)O)NC(=O)[C@H](CC(=O)O)NC(=O)[C@H](CO)NC(=O)[C@H](CCCNC(=N)N)NC(=O)[C@@H](N)CSSC[C@@H](C(N)=O)NC1=O	Fulfilled
CC(C)C[C@@H]1NC(=O)[C@H]([C@@H](C)O)NC(=O)[C@H](CC(=O)O)NC(=O)[C@H](CO)NC(=O)[C@H](C)NC(=O)[C@@H](N)CSSC[C@@H](C(N)=O)NC1=O (HELM PEPTIDE1{C.A.S.D.T.L.C.[am]}$PEPTIDE1,PEPTIDE1,1:R3-7:R3$$$V2.0)	Fulfilled
CSCC[C@@H]1NC(=O)[C@H](CCCN=C(N)N)NC(=O)[C@@H](N)CSSC[C@@H](C(N)=O)NC(=O)[C@H](CC(C)C)NC(=O)[C@H]([C@@H](C)O)NC(=O)[C@H](CC(=O)O)NC1=O	Fulfilled
CC(C)C[C@@H]1NC(=O)[C@H]([C@@H](C)O)NC(=O)[C@H](CC(=O)O)NC(=O)[C@H](CO)NC(=O)[C@H](CCCN=C(N)N)NC(=O)[C@@H](N)CSSC[C@@H](C(=O)NCC(=O)N[C@@H](CCC(=O)O)C(N)=O)NC1=O (HELM PEPTIDE1{C.R.S.D.T.L.C.G.E.[am]}$PEPTIDE1,PEPTIDE1,1:R3-7:R3$$$V2.0)	Fulfilled
CC(C)C[C@@H]1NC(=O)[C@H]([C@@H](C)O)NC(=O)[C@H](CC(=O)O)NC(=O)[C@H](CO)NC(=O)[C@H](CCCNC(=N)N)NC(=O)[C@@H](N)CSSC[C@@H](C(=O)NCC(N)=O)NC1=O (HELM PEPTIDE1{C.R.S.D.T.L.C.G.[am]}$PEPTIDE1,PEPTIDE1,1:R3-7:R3$$$V2.0)	Fulfilled
C[C@@H]1NC(=O)[C@H]([C@@H](C)O)NC(=O)[C@H](CC(=O)O)NC(=O)[C@H](CO)NC(=O)[C@H](CCCN=C(N)N)NC(=O)[C@@H](N)CSSC[C@@H](C(N)=O)NC1=O (HELM PEPTIDE1{C.R.S.D.T.A.C.[am]}$PEPTIDE1,PEPTIDE1,1:R3-7:R3$$$V2.0)	Not fulfilled
CC(C)C[C@H]1NC(=O)[C@H]([C@H](C)O)NC(=O)[C@H](CC(=O)O)NC(=O)[C@H](CO)NC(=O)[C@@H](CCCN=C(N)N)NC(=O)[C@H](N)CSSC[C@H](C(N)=O)NC1=O	Not fulfilled
CC(C)C[C@H]1NC(=O)[C@H]([C@H](C)O)NC(=O)[C@@H](CC(=O)O)NC(=O)[C@@H](CO)NC(=O)[C@@H](CCCN=C(N)N)NC(=O)[C@H](N)CSSC[C@H](C(N)=O)NC1=O	Not fulfilled
